Data origin: PubChem BioAssay AID248

T/C values by entry
Test system: L1210 leukemia ip in BDF1 mice, survival T/C
Test protocol: NCI In Vivo Anticancer Drug Screen. Data for tumor model L1210 Leukemia (intraperitoneal) in B6D2F1 (BDF1) mice
Test context: endpoint: mean survival time; dose: 100.0 mg/kg/injection; schedule: Q04DX003 (ip); vehicle: saline with Tween-80; higher = longer survival
Inconclusive results and toxic doses are left out.

For orientation, consider the following solved cases.
Compound structure	Experimental system	Observed result
Brc1ccc([Si](c2ccccc2)(c2ccccc2)c2ccccc2)cc1	L1210 leukemia ip in BDF1 mice, survival T/C	97 % of control
O=C1CCC(=O)N1CCC(=O)N(C(=O)NC1CCCCC1)C1CCCCC1	L1210 leukemia ip in BDF1 mice, survival T/C	100 % of control

Value sought: T/C, system L1210 leukemia ip in BDF1 mice, survival T/C, item O=C(SCc1ccccc1)c1cccnc1 . Result: 99 % of control

Value sought: T/C, system L1210 leukemia ip in BDF1 mice, survival T/C, item Cc1nc2c(NC(=O)C(F)(F)F)nn(C)c2nc1C . Result: 100 % of control

Value sought: T/C, system L1210 leukemia ip in BDF1 mice, survival T/C, item O=c1[nH]cc(Br)c2sccc12 . Result: 100 % of control

Value sought: T/C, system L1210 leukemia ip in BDF1 mice, survival T/C, item COc1ccc(Cc2cc3cc(OC)c(OC)cc3cn2)cc1OC . Result: 93 % of control

Value sought: T/C, system L1210 leukemia ip in BDF1 mice, survival T/C, item O=[N+]([O-])c1cc(C(F)(F)F)ccc1/C=C/c1ccccc1Br . Result: 105 % of control

---

Test system: L1210 leukemia ip in BDF1 mice, survival T/C
Test protocol: NCI In Vivo Anticancer Drug Screen. Data for tumor model L1210 Leukemia (intraperitoneal) in B6D2F1 (BDF1) mice
Test context: endpoint: mean survival time; dose: 25.0 mg/kg/injection; schedule: Q01DX009 (ip); vehicle: saline; higher = longer survival
Toxic doses and inconclusive results are not listed.
Quantity kind: T/C

For orientation, consider the following solved cases.
Compound structure	Observed result
Cc1c(-c2ccccc2)cc(O)cc1-c1ccccc1	98 % of control
CNCCN(C)Cc1ccccc1	101 % of control

# input for lookup
Value sought: T/C, system L1210 leukemia ip in BDF1 mice, survival T/C, item C/C(=N/N(C)C)c1ccc(Br)cc1 . Result: 92 % of control

---

Test system: L1210 leukemia ip in BDF1 mice, survival T/C
Test protocol: NCI In Vivo Anticancer Drug Screen. Data for tumor model L1210 Leukemia (intraperitoneal) in B6D2F1 (BDF1) mice
Test context: endpoint: mean survival time; dose: 100.0 mg/kg/injection; schedule: Q01DX009 (ip); vehicle: saline; higher = longer survival
Toxic doses and inconclusive results are not listed.
Quantity kind: T/C

For orientation, consider the following solved cases.
Compound	T/C
CCN(CC)C(=O)C1CN2CCc3cc(OC)c(OC)cc3C2CC1O (stereo not drawn)	103 % of control
C/C(=N/N(C)C)c1ccc(F)cc1	94 % of control

Value sought: T/C, system L1210 leukemia ip in BDF1 mice, survival T/C, item COC1C(OC(=O)/C=C/C=C/C=C/C=C/C(=O)O)CCC2(CO2)C1C1(C)OC1CC=C(C)C (stereo not drawn) . Result: 101 % of control
